# Test system: NCI-H292 lung cancer cells
# TEST PROTOCOL: FDA drug screening, complete media vs cholesterol-free media without statin (TABLE 1)
# Format: cell-based, human
# CONDITION: NCI-H292 cells, FDA drug library screen, cholesterol-free media without statin
RECORDED ENDPOINT: Cholesterol-free

>  <COMPOUND>
C#C[C@]1(OC(C)=O)CC[C@H]2[C@@H]3CCC4=CC(=O)CC[C@@H]4[C@H]3CC[C@@]21C [Norethindrone acetate]

>  <SYSTEM NAME>
NCI-H292 lung cancer cells

>  <REPORTED>
1.033

$$$$
>  <COMPOUND>
OCc1ccccc1

>  <SYSTEM NAME>
NCI-H292 lung cancer cells

>  <REPORTED>
1.033

$$$$
>  <COMPOUND>
COC(c1ccccc1)(c1ccccc1)[C@H](Oc1nc(C)cc(C)n1)C(=O)O

>  <SYSTEM NAME>
NCI-H292 lung cancer cells

>  <REPORTED>
1.13

$$$$
>  <COMPOUND>
COc1ccnc(C[S+]([O-])c2nc3cc(-n4cccc4)ccc3[nH]2)c1C (stereo not drawn)

>  <SYSTEM NAME>
NCI-H292 lung cancer cells

>  <REPORTED>
1.326

$$$$
>  <COMPOUND>
COc1cnc(NS(=O)(=O)c2ccc(N)cc2)nc1

>  <SYSTEM NAME>
NCI-H292 lung cancer cells

>  <REPORTED>
0.9159

$$$$
>  <COMPOUND>
C/C1=C2/[N-][C@H]([C@H](CC(N)=O)[C@@]2(C)CCC(=O)NC[C@@H](C)OP(=O)([O-])O[C@H]2[C@@H](O)[C@@H](n3cnc4cc(C)c(C)cc43)O[C@@H]2CO)[C@]2(C)N=C(/C(C)=C3N=C(/C=C4N=C1[C@@H](CCC(N)=O)C\4(C)C)[C@@H](CCC(N)=O)[C@]\3(C)CC(N)=O)[C@@H](CCC(N)=O)[C@]2(C)CC(N)=O.[CH3-].[Co+3]

>  <SYSTEM NAME>
NCI-H292 lung cancer cells

>  <REPORTED>
1.021

$$$$
